studySystem: HDAC2 (Homo sapiens)
Construct: purchased Enzo Life Sciences
protocolDetails: HDAC Inhibition Screening Assay (FLUOR DE LYS Fluorimetric Drug Discovery Kit), HDAC2
Assay type: biochemical
testContext: 2 μM compound
Description: The HDAC1/HDAC2/HDAC3 in vitro activities are detected by Enzo Life Sciences' HDAC1/HDAC2/HDAC3 Fluorimetric Drug Discovery Kit. The assay is based on the FLUOR DE LYS® Substrate and FLUOR DE LYS® Developer combination. The assay procedure has two steps. […] The signals of the test compounds (Compounds 1˜83; at concentrations of 2 μM, 10 μM and 50 μM) in 96-well plates are detected at 360 nm or 485 nm excitation and 460 nm or 530 nm emission with a Molecular Devices SpectraMax i3 Imaging Cytometer. […]
Answer each item with its documented inhibition at 2 µM.

Using the record for Nc1cc(F)ccc1NC(=O)/C=C/c1ccc2c(c1)CCC2NCCC(=O)Nc1cc(C(F)(F)F)cc(C(F)(F)F)c1 (stereo not drawn) [Compound 49] , report its inhibition at 2 µM.
< 50%

What does the data say about its inhibition at 2 µM? Entry: O=C(CCCCCCC(=O)Nc1ccc2c(c1)CCCC2O)NO (stereo not drawn) [Compound 2]
> 80%

Please give the measured inhibition at 2 µM for this molecule: CCN(CC)c1ccc(C(=O)NC2CCc3cc(/C=C/C(=O)NO)ccc32)cc1 (stereo not drawn) [Compound 28]
> 80%

Which inhibition at 2 µM value is on record for Nc1cc(F)ccc1NC(=O)/C=C/c1ccc2c(c1)CC/C(=C\c1cc(C(F)(F)F)cc(C(F)(F)F)c1)C2=O [Compound 6] ?
< 50%

Any idea what its inhibition at 2 µM is? The molecule is O=C(/C=C/c1ccc2c(c1)CCC2NCCc1c[nH]c2ccccc12)NO (stereo not drawn) [Compound 58]
> 80%

inhibition at 2 µM for O=C(CCCCCCC(=O)Nc1ccc2c(c1)CCC/C2=N\O)NO [Compound 3] ?
> 80%

For the molecule Nc1cc(F)ccc1NC(=O)CCCCCNC(=O)/C=C/c1ccc2c(c1)CCC2NC(=O)c1ccc(F)cc1 (stereo not drawn) [Compound 31] , what inhibition at 2 µM is on record?
> 80%

Record request: inhibition at 2 µM value, item O=C(CCCCCNC(=O)COc1ccc2c(c1)CC/C(=C\c1cc(C(F)(F)F)cc(C(F)(F)F)c1)C2=O)NO [Compound 74]
50 to 80%

For the molecule shown here, CN(C)c1ccc(CCNC2CCc3cc(/C=C/C(=O)NO)ccc32)cc1 (stereo not drawn) [Compound 56] , give the reported inhibition at 2 µM.
> 80%

----------
studySystem: HDAC2 (Homo sapiens, UniProt Q92769)
Construct: purchased Enzo Life Sciences
Sequence (Q92769 whole entry): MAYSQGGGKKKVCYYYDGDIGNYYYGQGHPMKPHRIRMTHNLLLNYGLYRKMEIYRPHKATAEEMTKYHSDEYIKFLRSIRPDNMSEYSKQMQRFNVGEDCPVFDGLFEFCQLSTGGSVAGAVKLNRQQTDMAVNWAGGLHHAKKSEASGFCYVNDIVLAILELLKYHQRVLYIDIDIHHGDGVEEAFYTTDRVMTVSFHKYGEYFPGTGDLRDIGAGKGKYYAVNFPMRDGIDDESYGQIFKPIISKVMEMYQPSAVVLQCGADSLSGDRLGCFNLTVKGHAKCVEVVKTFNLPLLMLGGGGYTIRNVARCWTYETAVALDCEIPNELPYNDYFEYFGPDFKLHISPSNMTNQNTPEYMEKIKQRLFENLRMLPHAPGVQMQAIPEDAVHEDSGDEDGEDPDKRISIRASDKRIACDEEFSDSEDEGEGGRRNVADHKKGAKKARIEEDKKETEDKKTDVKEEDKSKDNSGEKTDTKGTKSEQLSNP
protocolDetails: HDAC Inhibition Screening Assay (FLUOR DE LYS Fluorimetric Drug Discovery Kit), HDAC2
Format: biochemical
testContext: 50 μM compound
Consider the following compounds; for each one, report its inhibition at 50 µM.

# lookup: inhibition at 50 µM of Nc1cc(F)ccc1NC(=O)CCCCCCC(=O)Nc1ccc2c(c1)CCC(Cc1cc(C(F)(F)F)cc(C(F)(F)F)c1)C2=O (stereo not shown) [Compound 9]
< 50%

Reported inhibition at 50 µM, compound O=C(CCCCCN(CC(=O)NC1CCc2ccccc21)CC(=O)NC1CCc2ccccc21)NO (stereo not shown) [Compound 45] : ____
> 80%

Look up inhibition at 50 µM: Nc1cc(F)ccc1NC(=O)CCCCCNC(=O)/C=C/c1ccc2c(c1)CCC2NC(=O)c1ccc(F)cc1 (stereo not shown) [Compound 31]
> 80%

Reported inhibition at 50 µM for Nc1cc(F)ccc1NC(=O)c1ccc(COc2ccc3c(c2)CC(Cc2cc(C(F)(F)F)cc(C(F)(F)F)c2)C3=O)cc1 (stereo not shown) [Compound 76] : what is it?
< 50%

# input compound: O=C(/C=C/c1ccc2c(c1)CCC2NCCc1c[nH]c2ccccc12)NO (stereo not shown) [Compound 58] ; wanted: its inhibition at 50 µM
> 80%

Which inhibition at 50 µM value belongs to Nc1cc(F)ccc1NC(=O)c1ccc(COc2ccc3c(c2)CCC(Cc2cc(C(F)(F)F)cc(C(F)(F)F)c2)C3=O)cc1 (stereo not shown) [Compound 67] ?
< 50%

Given Nc1cc(F)ccc1NC(=O)CCCCCC(=O)Nc1ccc2c(c1)CC/C(=C\c1cc(C(F)(F)F)cc(C(F)(F)F)c1)C2=O [Compound 11] , state its recorded inhibition at 50 µM.
< 50%

Consider the compound O=C(CCCCCCC(=O)NC1CCCc2cc(Br)ccc21)NO (stereo not shown) [Compound 46] and give its measured inhibition at 50 µM.
> 80%

Quick check: inhibition at 50 µM of O=C(/C=C/c1ccc2c(c1)CCC2NS(=O)(=O)c1cc(C(F)(F)F)cc(C(F)(F)F)c1)NO (stereo not shown) [Compound 18] ?
> 80%

# inhibition at 50 µM lookup, item O=C(CCCCNC(=O)c1ccc2c(c1)CC/C(=C\c1cc(C(F)(F)F)cc(C(F)(F)F)c1)C2=O)NO [Compound 81]
50 to 80%

Given the entry Nc1ccccc1NC(=O)c1ccc(COc2ccc3c(c2)CC/C(=C\c2cc(C(F)(F)F)cc(C(F)(F)F)c2)C3=O)cc1 [Compound 66] , report its measured inhibition at 50 µM.
< 50%

Need inhibition at 50 µM of CN(C(=O)OCc1cc(C(F)(F)F)cc(C(F)(F)F)c1)C1CCc2ccc(/C=C/C(=O)NO)cc21 (stereo not shown) [Compound 65] , thanks.
> 80%

Find the recorded inhibition at 50 µM belonging to Nc1cc(F)ccc1NC(=O)/C=C/c1ccc(COc2ccc3c(c2)CCCC3=O)cc1 [Compound 69] and report it.
50 to 80%

// returns reported inhibition at 50 µM for input O=C(/C=C/c1ccc2c(c1)CCC2NC(=O)c1cc(C(F)(F)F)cc(C(F)(F)F)c1)NO (stereo not shown) [Compound 22]
> 80%

Any idea what inhibition at 50 µM was measured for Nc1cc(F)ccc1NC(=O)CCCCC(=O)Nc1ccc2c(c1)CC/C(=C\c1cc(C(F)(F)F)cc(C(F)(F)F)c1)C2=O [Compound 13] ?
< 50%

Find the recorded inhibition at 50 µM belonging to O=C(NO)c1ccc(COc2ccc3c(c2)CCC(Cc2cc(C(F)(F)F)cc(C(F)(F)F)c2)C3=O)cc1 (stereo not shown) [Compound 68] and report it.
< 50%

----------
Please respond with reported inhibition at 10 µM for every item in the list.
studySystem: HDAC3 (Homo sapiens)
Construct: purchased Enzo Life Sciences
Sequence (O15379 whole entry): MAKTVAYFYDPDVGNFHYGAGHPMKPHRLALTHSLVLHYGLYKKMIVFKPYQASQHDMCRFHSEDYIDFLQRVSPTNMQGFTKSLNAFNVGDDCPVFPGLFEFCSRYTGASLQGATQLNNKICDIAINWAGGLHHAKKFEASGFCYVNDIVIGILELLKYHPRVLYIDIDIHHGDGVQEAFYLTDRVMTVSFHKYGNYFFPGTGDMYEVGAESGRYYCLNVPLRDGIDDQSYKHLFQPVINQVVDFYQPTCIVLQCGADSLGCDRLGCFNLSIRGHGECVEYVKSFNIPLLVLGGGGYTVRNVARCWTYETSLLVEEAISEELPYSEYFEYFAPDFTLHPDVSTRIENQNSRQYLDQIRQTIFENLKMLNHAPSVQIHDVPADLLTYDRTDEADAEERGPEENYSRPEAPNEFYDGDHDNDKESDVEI
Sequence (O75376 395-489 partner limits assumed): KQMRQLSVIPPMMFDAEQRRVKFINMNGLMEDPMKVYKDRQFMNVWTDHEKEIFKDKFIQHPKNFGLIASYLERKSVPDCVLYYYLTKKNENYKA
protocolDetails: HDAC Inhibition Screening Assay (FLUOR DE LYS Fluorimetric Drug Discovery Kit), HDAC3
Type: biochemical
testContext: 10 μM compound

Given the entry Nc1cc(F)ccc1NC(=O)/C=C/c1ccc(COc2ccc3c(c2)CCCC3=O)cc1 , report its measured inhibition at 10 µM.
< 50%

Could you share which inhibition at 10 µM value was measured for O=C(CCCCNC(=O)c1ccc2c(c1)CC/C(=C\c1cc(C(F)(F)F)cc(C(F)(F)F)c1)C2=O)NO ?
50 to 80%

Can you look up the measured inhibition at 10 µM of COc1ccc(S(=O)(=O)NC2CCc3cc(/C=C/C(=O)Nc4ccc(F)cc4N)ccc32)cc1 (stereo not drawn) for me?
< 50%

Look up inhibition at 10 µM: O=C(CCCCCC(=O)Nc1ccc2c(c1)CC/C(=C\c1cc(C(F)(F)F)cc(C(F)(F)F)c1)C2=O)NO
> 80%

Tell me the measured inhibition at 10 µM of COc1ccc(S(=O)(=O)NC2CCc3cc(/C=C/C(=O)NO)ccc32)cc1 (stereo not drawn) , please.
> 80%

Query: inhibition at 10 µM; subject: O=C(CCCCCCC(=O)Nc1ccc2c(c1)CCCC2O)NO (stereo not drawn)
> 80%

Fill in: inhibition at 10 µM of Cc1ccc(S(=O)(=O)NC2CCc3cc(/C=C/C(=O)NO)ccc32)cc1 (stereo not drawn) is ___
> 80%

Given the compound CN(C(=O)OCc1cc(C(F)(F)F)cc(C(F)(F)F)c1)C1CCc2cc(/C=C/C(=O)NO)ccc21 (stereo not drawn) , what is its reported inhibition at 10 µM?
50 to 80%

Please give the measured inhibition at 10 µM for this compound: Nc1cc(F)ccc1NC(=O)CCCCC(=O)Nc1ccc2c(c1)CC/C(=C\c1cc(C(F)(F)F)cc(C(F)(F)F)c1)C2=O
< 50%

Find the recorded inhibition at 10 µM belonging to Nc1cc(F)ccc1NC(=O)/C=C/c1ccc2c(c1)CCC2NS(=O)(=O)c1cc(C(F)(F)F)cc(C(F)(F)F)c1 (stereo not drawn) and report it.
< 50%

Field request: inhibition at 10 µM | item: COc1ccc(CCNC2CCc3cc(/C=C/C(=O)NO)ccc32)cc1 (stereo not drawn)
> 80%

Which value of inhibition at 10 µM has been reported for O=C(CCCCCCC(=O)NC1CCCc2cc(Br)ccc21)NO (stereo not drawn) in the records?
< 50%

Can you share its inhibition at 10 µM? I mean this compound: Nc1cc(F)ccc1NC(=O)/C=C/c1ccc2c(c1)CCCC2OCc1cc(C(F)(F)F)cc(C(F)(F)F)c1 (stereo not drawn)
< 50%

Entry Cc1[nH]c2ccccc2c1CCNC1CCc2cc(/C=C/C(=O)NO)ccc21 (stereo not drawn) has what inhibition at 10 µM?
> 80%

Fill in: inhibition at 10 µM of O=C(CCCCC(=O)N1CCN(C(=O)c2ccc3c(c2)CC/C(=C\c2cc(C(F)(F)F)cc(C(F)(F)F)c2)C3=O)CC1)NO is ___
< 50%

Look up inhibition at 10 µM: O=C(CCCCCCC(=O)Nc1ccc2c(c1)CCC(Cc1cc(C(F)(F)F)cc(C(F)(F)F)c1)C2=O)NO (stereo not drawn)
50 to 80%

Which value of inhibition at 10 µM has been reported for Nc1cc(F)ccc1NC(=O)/C=C/c1ccc2c(c1)CC/C(=C\c1cc(C(F)(F)F)cc(C(F)(F)F)c1)C2=O in the records?
< 50%

I would be grateful if you could share the reported inhibition at 10 µM for Nc1cc(F)ccc1NC(=O)CCCCCCC(=O)Nc1ccc2c(c1)CC/C(=C\c1cc(C(F)(F)F)cc(C(F)(F)F)c1)C2=O .
< 50%
